- target-system: Vasopressin 1 (V1) receptor (Homo sapiens, UniProt P37288)
- Sequence (P37288 whole entry): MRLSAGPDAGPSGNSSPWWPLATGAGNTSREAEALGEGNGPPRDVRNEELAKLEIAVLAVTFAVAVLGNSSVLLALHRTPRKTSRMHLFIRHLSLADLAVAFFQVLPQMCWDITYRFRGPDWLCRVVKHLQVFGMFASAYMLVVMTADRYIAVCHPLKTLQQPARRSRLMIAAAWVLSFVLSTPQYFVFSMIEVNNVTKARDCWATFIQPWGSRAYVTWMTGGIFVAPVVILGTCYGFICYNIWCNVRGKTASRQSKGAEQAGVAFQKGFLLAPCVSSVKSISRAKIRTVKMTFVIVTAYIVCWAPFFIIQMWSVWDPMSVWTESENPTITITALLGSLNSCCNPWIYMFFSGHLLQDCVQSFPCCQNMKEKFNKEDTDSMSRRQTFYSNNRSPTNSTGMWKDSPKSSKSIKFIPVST
- run-description: Vasopressin 1 (V1) Receptor Binding
- experimental-context: competition with 1.5 nM 3H-vasopressin, platelet membrane preparation from blood of normal subjects, 15 minutes at 30° C.
Structures can show the parent of a compound that is named as a salt.
measurement-name: IC50 (µM)

compound	IC50, µM
CN1CCN(C(=O)CCCCCOc2ccccc2N(C)C(=O)c2ccc(NC(=O)c3ccccc3OCCCN)cc2)CC1 [Example 16, dihydrochloride]	0.014

(1) CCOC(=O)CCCCCOc1cc(C)ccc1N(C)C(=O)c1ccc(NC(=O)c2ccccc2OCCCN)cc1
(2) Cc1ccc(N(C)C(=O)c2ccc(NC(=O)c3ccccc3N)cc2)c(OCCCCCC(=O)O)c1
Given 1 and 2 , report the one with the higher recorded IC50. Respond with the label that goes with your answer.
2
(2: 0.051 µM, 1: 0.031 µM)

Data provenance: patent US6054457A
